Reported chromatographic logD by item:
# test name: Log D at pH 7.4 (chromatographic procedure)
# Type: physicochemical
# run conditions: n-octanol / aqueous buffer pH 7.4, pH 7.4
Just the number.

# count of solved cases: 2
# compound, chromatographic logD
records = [
    ("CC(C)C1CCN1Cc1ccc(CNC(=O)c2ccc3nncn3c2)cc1 (centres unmarked)", 0.31),
    ("CN(C)Cc1ccc(CNC(=O)c2ccc3nncn3c2)cc1", 0.28),
]

Endpoint output: chromatographic logD of `O=C(NCc1ccc(CN2CCCCC2)cc1)c1ccc2nncn2c1` . Value?
0.11

chromatographic logD for `O=C(NCc1ccc(CN2CCOCC2)cc1)c1ccc2nncn2c1` ?
-0.1

Could you share which chromatographic logD value was measured for CC(C)C1CCN1Cc1cc2cnc(NC(=O)c3ccc4nncn4c3)cc2[nH]1 (centres unmarked) ?
0.82

* * *

# System: MV4-11 cells
# test name: Cell toxicity assay (CCK-8), MV4-11
# Assay type: cell-based
# run conditions: 8 day treatment, n = 3; read-out: CC50 MV4-11 (Cellular IC50, 8-days incubation)
metric name: IC50
Please format your answer as a value with the unit trailing.

Using the record for `C[C@H]1CCCN1Cc1cc2cnc(NC(=O)c3ccc4nncn4c3)cc2[nH]1` , report its IC50.
3.28 µM

* * *

Listing of recorded Plasma % of parent compound remaining (after 2h incubation) by entry.
# test name: In vitro stability assay in human plasma
# Assay type: in vitro ADME
# run conditions: 37 °C, 5 μM, mean ± SD, n = 3
// units = %; emit number, no label

Some compounds with known Plasma % of parent compound remaining (after 2h incubation) results, for comparison:
# compound, unit text, recorded value
data = [
    ("CSc1ccc(CNC(=O)c2ccc3nncn3c2)cc1 [inhibitor 1]", "%", 84.81),
    ("O=C(Nc1cc2[nH]c(CN3CCC3C3CC3)cc2cn1)c1ccc2nncn2c1 [YR-D-121]", "%", 82.54),
    ("CC(C)(C)C1CCN1Cc1ccc(CNC(=O)c2ccc3nncn3c2)cc1 (stereo not shown) [inhibitor 14]", "%", 97.60),
    ("C[C@H]1CCCN1Cc1cc2cnc(NC(=O)c3ccc4nncn4c3)cc2[nH]1 [YR-D-120]", "%", 83.10),
    ("CC(C)[C@@H]1CCN1Cc1cc2cnc(NC(=O)c3ccc4nncn4c3)cc2[nH]1 [SR-C-107 (S)]", "%", 89.11),
]

Reported Plasma % of parent compound remaining (after 2h incubation), compound CC1CCN1Cc1ccc(CNC(=O)c2ccc3nncn3c2)cc1 (stereo not shown) [inhibitor 12] : ____
85.32

Data request, read-out Plasma % of parent compound remaining (after 2h incubation), for O=C(NCc1ccc(CNc2ncc(F)cn2)cc1)c1ccc2nncn2c1 [inhibitor 24]
88.42

* * *

# tested on: ENL YEATS domain (Homo sapiens)
# Construct: Biotinylated-ENL YEATS was immobilized onto SSA biosensors; biotin (biotinylated)
# test name: Biolayer interferometry (BLI)
# Type: binding
# run conditions: biotinylated ENL YEATS on SSA biosensors, 1:1 model
metric name: Kd

# compound, recorded value
rows = [
    ("CC(C)C1CCN1Cc1cc2cnc(NC(=O)c3ccc4nncn4c3)cc2[nH]1 (stereo not shown)", "565 nM"),
    ("O=C(Nc1cc2[nH]c(CN3CCC3C3CC3)cc2cn1)c1ccc2nncn2c1 (stereo not shown)", "1340 nM"),
    ("C[C@H]1CCCN1Cc1cc2cnc(NC(=O)c3ccc4nncn4c3)cc2[nH]1", "645 nM"),
]

Okay, next one:
Item CC(C)[C@H]1CCN1Cc1cc2cnc(NC(=O)c3ccc4nncn4c3)cc2[nH]1 [SR-C-107 (R)] with ENL YEATS domain (Homo sapiens) - Kd?
144 nM

* * *

# tested on: NLuc-ENL YEATS (Homo sapiens)
# Construct: DNA encoding the ENL YEATS domain (aa 1–148) was cloned into an NLuc containing plasmid
# Sequence (Q03111 1-148): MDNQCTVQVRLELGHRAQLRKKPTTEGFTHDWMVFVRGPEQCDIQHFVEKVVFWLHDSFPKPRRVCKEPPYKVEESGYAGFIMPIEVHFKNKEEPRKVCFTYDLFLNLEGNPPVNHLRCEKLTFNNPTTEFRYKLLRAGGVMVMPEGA
# test name: ENL-NanoBRET inhibitor competitive assay
# run conditions: HEK293T cells stably expressing NLuc-ENL YEATS, 1 μM Tracer 2, 2 h; mean ± SD, n = 3
// reported IC50 for each item listed

For the compound shown here, `O=C(NCc1ccc(CN2CCCCC2)cc1)c1ccc2nncn2c1` , give the reported IC50.
> 80 µM

Look at this compound and give its reported IC50. `O=C(NCc1ccc(CN2CCOCC2)cc1)c1ccc2nncn2c1`
> 80 µM

# IC50 lookup, item CC(C)(C)C1CCN1Cc1ccc(CNC(=O)c2ccc3nncn3c2)cc1 (stereo not shown)
> 20 µM

Sample `CN(C)Cc1ccc(CNC(=O)c2ccc3nncn3c2)cc1` — what was its IC50?
> 80 µM
